# System: 945468-187-T-J2-PDC spheroids viability;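 note: spheroids exposed to compounds for seven days before reading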
# assay_text: Anticancer human tumor 945468-187-T-J2-PDC patient-derived rectal carcinoma cell line growth inhibition [PI3K]
# run_parameters: curve of first compound; second compound 10 µM; spheroids with HUVEC and MSC
pIC50: −log10 of the molar value.
Please respond with reported pIC50 for every item in the list.

INPUT: pIC50 lookup needed for CC1(C)CCC(CN2CCN(c3ccc(C(=O)NS(=O)(=O)c4ccc(NCC5CCOCC5)c([N+](=O)[O-])c4)c(Oc4cnc5[nH]ccc5c4)c3)CC2)=C(c2ccc(Cl)cc2)C1 + Cc1nc(NC(=O)N2CCCC2C(N)=O)sc1-c1ccnc(C(C)(C)C(F)(F)F)c1 , thanks.
OUTPUT: < 5.00

INPUT: # input compound: Cn1nccc1Nc1nccc(-c2ccn(C(CO)c3ccc(Cl)c(F)c3)c(=O)c2)n1 (stereo not given) + CC(Nc1ncnc2nc[nH]c12)c1cc2cccc(Cl)c2c(=O)n1-c1ccccc1 ; wanted: its pIC50
OUTPUT: < 5.00

INPUT: Fill blank: measured pIC50 of the compound CC(C)NCC(C(=O)N1CCN(c2ncnc3c2C(C)CC3O)CC1)c1ccc(Cl)cc1 (stereo not given) + CC(Nc1ncnc2nc[nH]c12)c1cc2cccc(Cl)c2c(=O)n1-c1ccccc1 is ____.
OUTPUT: < 5.00

INPUT: // lookup pIC50 for CC(Cn1ccc(-c2ccc(C#N)c(Cl)c2)n1)NC(=O)c1cc(C(C)O)[nH]n1 (stereo not given) + Cc1nc(NC(=O)N2CCCC2C(N)=O)sc1-c1ccnc(C(C)(C)C(F)(F)F)c1
OUTPUT: < 5.00

INPUT: Please report the recorded pIC50 for CCN1CCN(Cc2ccc(Nc3ncc(F)c(-c4cc(F)c5nc(C)n(C(C)C)c5c4)n3)nc2)CC1 + CC(Nc1ncnc2nc[nH]c12)c1cc2cccc(Cl)c2c(=O)n1-c1ccccc1 .
OUTPUT: < 6.00

INPUT: I have this compound here, Cn1ncnc1[C@H]1c2n[nH]c(=O)c3cc(F)cc(c23)N[C@@H]1c1ccc(F)cc1 + Cc1nc(NC(=O)N2CCCC2C(N)=O)sc1-c1ccnc(C(C)(C)C(F)(F)F)c1 , and I need its recorded pIC50.
OUTPUT: < 7.00

INPUT: Field request: pIC50 | item: Cn1cnc2c(F)c(Nc3ccc(Br)cc3Cl)c(C(=O)NOCCO)cc21 + Cc1nc(NC(=O)N2CCCC2C(N)=O)sc1-c1ccnc(C(C)(C)C(F)(F)F)c1
OUTPUT: 6.05

INPUT: Returns the measured pIC50 for the input compound. Input: C[C@@H](NC(=O)c1ncnc(N)c1Cl)c1ncc(C(=O)Nc2cc(C(F)(F)F)c(Cl)cn2)s1 + Cc1nc(NC(=O)N2CCCC2C(N)=O)sc1-c1ccnc(C(C)(C)C(F)(F)F)c1
OUTPUT: < 5.00

INPUT: Which pIC50 value belongs to CC1(C)CCC(Nc2ncc(C(F)(F)F)c(-c3c[nH]c4c(P(C)(C)=O)c(C#N)ccc34)n2)CN1 (stereo not given) + CC(Nc1ncnc2nc[nH]c12)c1cc2cccc(Cl)c2c(=O)n1-c1ccccc1 ?
OUTPUT: 6.26

INPUT: Find the recorded pIC50 belonging to CC(Cn1ccc(-c2ccc(C#N)c(Cl)c2)n1)NC(=O)c1cc(C(C)O)[nH]n1 (stereo not given) + CC(Nc1ncnc2nc[nH]c12)c1cc2cccc(Cl)c2c(=O)n1-c1ccccc1 and report it.
OUTPUT: < 5.00
